# Test system: Fibrinogen (Alexa647-labelled)
# test: fibrinogen binders on compound microarrays, profiling panel, artefact control for SMM control-protein annotation, biochemical, small-molecule microarray, 635/667 nm fluorescence (AID 1131);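 note: z-score merges 667 nm fluorescence with per-spot signal-to-noise over triplicate slides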
# assay.context: fibrinogen-A647 binding fluorescence, higher = more signal
// classify(record): look up composite z-score in ranges low band = under 0.6, middle band = from 0.6 up to 0.9, high band = 0.9 and over

stdin: Just checking, what class would you give "COCC(=C=CC[C@@H](O)c1ccccc1OCCO)C[C@@H](O)c1cc(Cl)cc(Cl)c1O" here?
stdout: middle band

stdin: Just checking, what class would you give CS(=O)(=O)CCOC(=O)C1=CC(CCCO)=CC(c2ccc(CN3CCCC3)cc2)N(Cc2cc3c(cc2Br)OCO3)C=C1C(=O)OCCS(C)(=O)=O (centres undefined) here?
stdout: high band

stdin: Just checking, what class would you give C#CCN(Cc1ccccc1Br)C(/C=C/c1ccccc1)CO (centres undefined) here?
stdout: low band

stdin: Just checking, what class would you give CC(C)c1ccc(NN2C(C(O)c3cc(C(F)(F)F)cc(C(F)(F)F)c3)C=CC3C(=O)N(c4ccccc4)C(=O)C32)cc1 (centres undefined) here?
stdout: high band

stdin: Just checking, what class would you give CN1C(=O)C2C=CC(C(O)c3cc(C(F)(F)F)cc(C(F)(F)F)c3)N(N3CCCCC3)C2C1=O (centres undefined) here?
stdout: middle band

stdin: Just checking, what class would you give O=C1OCCC/C=C\[C@H]2OC34C=CCN(c5ccc6ccccc6c5)C(=O)[C@H]3N(CCCCCCO)C(=O)[C@@H]4C12 (some centres undefined) here?
stdout: low band

stdin: Just checking, what class would you give "COC(=O)c1c(CC[C@@H](CO)NC(=O)N2CCC[C@H]2Cn2cc(-c3ccccn3)nn2)oc(C(C)=O)c1C(=O)OC" here?
stdout: low band

stdin: Just checking, what class would you give "COc1cc2c(cc1OC)CN(C(=O)[C@H]1[C@@H]3C(=O)O[C@@H](c4ccccc4)[C@@H](c4ccccc4)N3[C@@H](c3ccc(O)cc3)[C@]13C(=O)Nc1ccc(C#CC4=CCCCC4)cc13)CC2" here?
stdout: middle band

stdin: Just checking, what class would you give "CC(=O)NCCCC[C@@H]1NC(=O)[C@@H]2C[C@H](C(=O)NCCCCCCNC(=O)CS)[C@H](c3cccc(OCCO)c3)N2C1=O" here?
stdout: low band

stdin: Just checking, what class would you give "COCCCN1C(=O)[C@@]2(Cc3ccccc31)c1ccccc1C(=O)N(Cc1ccccc1C(F)(F)F)[C@H]2c1ccc(CO)cc1" here?
stdout: low band

stdin: Just checking, what class would you give CCOC(=O)[C@H]1CC=C2CC1C(=O)N1CCC[C@@H]1[C@@H]2O[Si](C)(C)C(C)(C)C (some centres undefined) here?
stdout: low band

stdin: Just checking, what class would you give "C=C(COC)/C(=C/C[C@@H](OC(C)=O)c1ccc(CO)o1)c1cnc2ccccc2c1" here?
stdout: high band

stdin: Just checking, what class would you give "COCCOC(=O)N1C(=O)[C@@]2(c3cc(C#Cc4ccc(OC)cc4)ccc31)[C@H](c1ccc(O)cc1)N1[C@H](c3ccccc3)[C@H](c3ccccc3)OC(=O)[C@H]1[C@@H]2C(=O)NC[C@H](O)c1ccccc1" here?
stdout: high band

stdin: Just checking, what class would you give "CC(=O)N1Cc2ccccc2C[C@@]2(COC(c3ccc(OCCCO)cc3)=N2)C1=O" here?
stdout: middle band

stdin: Just checking, what class would you give "COC(=O)[C@@]1(Cc2ccccc2)[C@H]2c3cc(C(=O)N(C)C)n(CCSCCO)c3C[C@H]2CN1C(=O)c1ccccc1" here?
stdout: middle band

stdin: Just checking, what class would you give "C=CCOC(=O)[C@H]1[C@@H]2C(=O)O[C@@H](c3ccccc3)[C@@H](c3ccccc3)N2[C@@H](c2ccc(OCCOC(=O)[C@@H]3C[C@@H]4C(=O)N[C@@H](CCCCN(C)C)C(=O)N4[C@@H]3c3ccc(O)cc3)cc2)[C@]12C(=O)Nc1ccc(I)cc12" here?
stdout: middle band

stdin: Just checking, what class would you give "CN1C(=O)[C@]2(Cc3ccccc3)N=C(c3ccc(OCCCO)cc3)O[C@@H]2c2ccccc21" here?
stdout: middle band

stdin: Just checking, what class would you give "COCCOC(=O)N1C(=O)[C@@]2(c3ccccc31)[C@H](c1ccc(O)cc1)N1[C@H](c3ccccc3)[C@H](c3ccccc3)OC(=O)[C@H]1[C@@H]2C(=O)NC[C@H](O)c1ccccc1" here?
stdout: low band

stdin: Just checking, what class would you give "C=CC[C@]1(C(=O)NCCCOC)N=C(c2ccc(OCCCO)cc2)O[C@H]1c1ccccc1N=[N+]=[N-]" here?
stdout: high band

stdin: Just checking, what class would you give "COCCOC(=O)N1C(=O)[C@@]2(c3cc(C#CC4=CCCCC4)ccc31)[C@H](c1ccc(O)cc1)N1[C@H](c3ccccc3)[C@H](c3ccccc3)OC(=O)[C@H]1[C@@H]2C(N)=O" here?
stdout: middle band

stdin: Just checking, what class would you give "C=CC[C@@]1(C(N)=O)N=C(c2ccc(OCCCO)cc2)O[C@@H]1c1ccccc1CN=[N+]=[N-]" here?
stdout: high band

stdin: Just checking, what class would you give CCC(CC)C(O)C1C=CC2C(=O)N(C)C(=O)C2N1Nc1ccccc1 (centres undefined) here?
stdout: high band

stdin: Just checking, what class would you give "[N-]=[N+]=NCc1ccccc1[C@@H]1OC(c2ccc(OCCCO)cc2)=N[C@]1(CCS(=O)(=O)c1ccccc1)C(=O)NCc1ccccc1" here?
stdout: high band

stdin: Just checking, what class would you give "COC(=O)[C@@]1(Cc2ccccc2)[C@H]2c3cc(C(=O)N4CCCC4)n(Cc4nc5ccccc5[nH]4)c3C[C@H]2CN1C(=O)c1ccccc1" here?
stdout: middle band

stdin: Just checking, what class would you give COc1cc2c(cc1O)C(C1CC1)N(Cc1cc3c(cc1Br)OCO3)CC2 (centres undefined) here?
stdout: low band

stdin: Just checking, what class would you give "C=C(COC)/C(=C/C[C@H](OC(=O)c1ccncc1)c1ccc(OCCO)cc1)c1cnc2ccccc2c1" here?
stdout: high band
